Listing of recorded EC50 by entry.
# Test system: Human immunodeficiency virus 1
# test-name: Anti-HIV activity against drug resistant HIV-1 harboring K103N mutant infected in human MT4 cells assessed as inhibition of virus-induced cytopathic effect by MTT assay
# Type: functional, organism-based
# experimental-conditions: Human immunodeficiency virus 1, MT4
Write the value in µM as a bare number.

Consider the following illustrative entries.
COc1cc(OC)cc(C(N=[N+]=[N-])c2nc(SC(C)C)[nH]c(=O)c2C)c1 (stereo not drawn) :: 107
CCc1c(C(N=[N+]=[N-])c2ccc(Br)cc2)nc(SC(C)C)[nH]c1=O (stereo not drawn) :: 51.2
CCc1c(C(N=[N+]=[N-])c2ccc(OC(F)(F)F)cc2)nc(SC(C)C)[nH]c1=O (stereo not drawn) :: 38.2
Cc1cc(C)cc(C(N=[N+]=[N-])c2nc(SC(C)C)[nH]c(=O)c2C)c1 (stereo not drawn) :: 2.51
CC(C)Sc1nc(C(N=[N+]=[N-])c2ccc(Br)cc2)c(C(C)C)c(=O)[nH]1 (stereo not drawn) :: 8.2

QUERY: For the record CCc1c(C(N=[N+]=[N-])c2ccc(Cl)cc2)nc(SC(C)C)[nH]c1=O (stereo not drawn) , what value of EC50 is listed for Human immunodeficiency virus 1?
RESULT: 14.3

QUERY: Notebook: pull reported EC50 for Human immunodeficiency virus 1, entry CCc1c(C(N=[N+]=[N-])c2cc(C)cc(C)c2)nc(SC(C)C)[nH]c1=O (stereo not drawn)
RESULT: 4.82

QUERY: Request - read-out EC50 | tested on Human immunodeficiency virus 1 | molecule Cc1cn([C@H]2C[C@H](N=[N+]=[N-])[C@@H](CO)O2)c(=O)[nH]c1=O
RESULT: 0.024
